tested on: THP-1 cells; test: Host cell cytotoxicity in the intracellular Leishmania assay (THP-1 cell ratio); format: cell-based, Human; conditions: host THP-1 cells in the intracellular assay, 72 h
MEASUREMENT LABEL: THP-1 Cell Ratio CC50

[[record]]
compound = "COC1C=COC2(C)Oc3c(C)c(OC(=O)c4ccccc4)c4c(c3C2=O)C(=O)C(N2CC(C)OC(C)C2)=C(NC(=O)C(C)=CC=CC(C)C(O)C(C)C(O)C(C)C(OC(C)=O)C1C)C4=O (stereo not drawn)"
value = "12.45 ± 1.02 µM"

[[record]]
compound = "COc1cc(C=C2Oc3c(ccc4c3C(c3ccnn3C(C)C)CC(=O)O4)C2=O)cc(OC)c1OC (stereo not drawn)"
value = "36.90 ± 1.13 µM"

[[record]]
compound = "O=C1C[C@H](c2cccnc2)c2c(cc(O)c3c(=O)c(-c4ccc(Cl)cc4)coc23)O1"
value = "> 50.00 µM"

[[record]]
compound = "O[C@H]1[C@H]2c3cc4c(cc3CN3CCC(=C[C@@H]1O)[C@H]23)OCO4"
value = ">50.00 µM"

[[record]]
compound = "COc1cc([C@@H]2CC(=O)Oc3ccc4c(=O)c(-c5ccccc5)coc4c32)ccc1O"
value = ">50.00 µM"

[[record]]
compound = "COc1ccc([C@H]2CC(=O)Oc3ccc4c(c32)O/C(=C\\c2cc(OC)c(OC)cc2OC)C4=O)cc1O"
value = ">50.00 µM"

[[record]]
compound = "COc1ccc(CCOc2cc([C@@H]3CC(=O)Oc4cc(O)c5c(=O)cc(-c6ccc(O)c(O)c6)oc5c43)ccc2OC)cc1"
value = ">50.00 µM"

[[record]]
compound = "OC1C=C2CCN3Cc4cc5c(cc4C(C1O)C23)OCO5 (stereo not drawn)"
value = ">50.00 µM"

[[record]]
compound = "CC(C)C1CC(=O)Oc2cc(O)c3c(=O)cc(-c4ccc(O)c(O)c4)oc3c21 (stereo not drawn)"
value = "20.84 ± 1.04 µM"

